Values compiled from ChEMBL document CHEMBL1148140.

System: SH-SY5Y
PROTOCOL_SUMMARY: Cytotoxicity against human SH-SY5Y cells overexpressing dominant negative mutant of p53
Format: functional, cell-based
List of pIC50 values.
In textbook form, pIC50 equals minus log to base ten of the concentration in mol/L.

Check out these entries, answers already filled in.
C[C@H]1CNCCN1S(=O)(=O)c1cccc2cnccc12 :: 4.10
COC1=C(N)C(=O)c2nc(-c3nc(C(=O)O)c(C)c(-c4ccc(OC)c(OC)c4O)c3N)ccc2C1=O [STREPTONIGRIN] :: 5.34

Okay, next one:
// query Could you tell me which pIC50 is on file for COC1=C(NC(C)C(C)=O)C(=O)c2nc(-c3nc(C(=O)O)c(C)c(-c4ccc(OC)c(OC)c4O)c3N)ccc2C1=O (stereo not drawn) ?
// result 4.12
